Tested on: Nucleic Acid
TEST PROTOCOL: In vitro inhibitory concentration against tRNA synthetases, in a pyrophosphate exchange assay
Format: functional, Staphylococcus aureus
PARAMETER: pIC50
Keep it numeric: pIC50 is minus log10 of the concentration in mol/L.

query: Give the measured pIC50 for CCc1cc(I)c2c(c1)C(NCCCNc1cc(=O)c3ccccc3[nH]1)CCN2 (stereo unspecified)
result: 8.85

* * *

Test system: Staphylococcus aureus
TEST PROTOCOL: In vitro antibacterial activity and competitive kinetics with respect to methionine
Type: functional, organism-based
PARAMETER: Ki
The answer should read as a number with its unit following.

query: Give the measured Ki for O=c1cc(NCCCNCc2ccc(Cl)c(Cl)c2)[nH]c2ccccc12
result: 5 nM
